// melting point lookup, one value per entry
Readout name: melting point

Compound	Readout name	Result
CN1CC2(NC(=S)N(C3CC3)C2=O)C2(C1)C(=O)Nc1ccc(Cl)cc12 (centres unmarked)	melting point	275 to 276 °C
CN1CC2(NC(=[Se])N(c3ccc(F)c(Cl)c3)C2=O)C2(C1)C(=O)Nc1ccc(Cl)cc12 (centres unmarked)	melting point	193 to 194 °C (dec.)
CN1CC2(NC(=S)N(Cc3ccccc3)C2=O)C2(C1)C(=O)Nc1ccccc12 (centres unmarked)	melting point	189 to 190 °C
CN1CC2(NC(=S)N(c3ccc(F)c(Cl)c3)C2=O)C2(C1)C(=O)Nc1ccccc12 (centres unmarked)	melting point	252 to 254 °C
C=CCN1C(=O)C2(CN(C)CC23C(=O)Nc2ccc(Cl)cc23)NC1=S (centres unmarked)	melting point	141 to 142 °C
Cc1ccc(N2C(=O)C3(CN(C)CC34C(=O)Nc3ccccc34)NC2=S)cc1 (centres unmarked)	melting point	155 to 157 °C
CN1CC2(NC(=S)N(Cc3ccccc3)C2=O)C2(C1)C(=O)Nc1ccc(Cl)cc12 (centres unmarked)	melting point	152 to 153 °C
CN1CC2(NC(=S)N(c3ccccc3)C2=O)C2(C1)C(=O)Nc1ccc(Cl)cc12 (centres unmarked)	melting point	268 to 269 °C

----------
- Assay overview: MTT cytotoxicity test, VA13
- Assay type: cell-based
- Stated conditions: human, VA13 SV40-transformed normal lung fibroblast cells, 72 h incubation
# CC50 at 72 h annotations

Compound	Scale unit	Inequality operator	CC50 at 72 h
CN1CC2(NC(=S)N(c3ccccc3)C2=O)C2(C1)C(=O)Nc1ccccc12 (centres unmarked)	µM	=	94.1
CN1CC2(NC(=S)N(Cc3cccc(Cl)c3)C2=O)C2(C1)C(=O)Nc1ccccc12 (centres unmarked)	µM	=	36.3
CCOc1ccc(N2C(=O)C3(CN(C)CC34C(=O)Nc3ccc(Cl)cc34)NC2=S)cc1 (centres unmarked)	µM	=	6.3
C=CCN1C(=O)C2(CN(C)CC23C(=O)Nc2ccc(Cl)cc23)NC1=S (centres unmarked)	µM	=	30.8
CN1CC2(NC(=S)N(CCCN3CCOCC3)C2=O)C2(C1)C(=O)Nc1ccccc12 (centres unmarked)	µM	>	100
CN1CC2(NC(=S)N(C3CC3)C2=O)C2(C1)C(=O)Nc1ccc(Cl)cc12 (centres unmarked)	µM	>	100
CN1CC2(NC(=S)N(c3ccc(F)c(Cl)c3)C2=O)C2(C1)C(=O)Nc1ccc(Cl)cc12 (centres unmarked)	µM	=	13.9
CCOc1ccc(N2C(=O)C3(CN(C)CC34C(=O)Nc3ccccc34)NC2=S)cc1 (centres unmarked)	µM	=	73.6

----------
- System: LNCaP human prostate cancer cell line
- Assay overview: MTT cytotoxicity test, LNCaP
- Type: cell-based
- Stated conditions: MTT test

Compound	CC50, LNCaP
CN1CC2(NC(=[Se])N(c3ccc(F)c(Cl)c3)C2=O)C2(C1)C(=O)Nc1ccc(Cl)cc12 (stereo not shown)	good activity
CN1CC2(NC(=O)N(c3ccc(F)c(Cl)c3)C2=O)C2(C1)C(=O)Nc1ccc(Cl)cc12 (stereo not shown)	good activity

----------
Entries and their CC50 values follow.
- System: HCT116^−/− human colon cancer cells (p53 negative)
- Assay overview: MTT cytotoxicity test, HCT116 p53-/-
- Stated conditions: HCT-116, read-out: CC50, HCT^−/−
Readout name: CC50 (µM)

Molecule	Inequality operator	Quantitative result
COc1ccc(N2C(=O)[C@@]3(CN(C)C[C@@]34C(=O)Nc3ccc(Cl)cc34)NC2=S)cc1 (racemic)	=	2.35
Cc1ccc(N2C(=O)C3(CN(C)CC34C(=O)Nc3ccc(Cl)cc34)NC2=S)cc1 (stereo not shown)	>	100
COc1cc([C@@H]2c3cc4c(cc3[C@@H](O[C@@H]3O[C@@H]5CO[C@@H](C)O[C@H]5[C@H](O)[C@H]3O)[C@H]3COC(=O)[C@H]23)OCO4)cc(OC)c1O [Etoposide, reference compound]	=	0.85
CN1CC2(NC(=S)N(Cc3ccccc3)C2=O)C2(C1)C(=O)Nc1ccc(Cl)cc12 (stereo not shown)	=	30
CN1CC2(NC(=S)N(CCCN3CCOCC3)C2=O)C2(C1)C(=O)Nc1ccc(Cl)cc12 (stereo not shown)	>	100
CN1CC2(NC(=S)N(c3ccc(F)c(Cl)c3)C2=O)C2(C1)C(=O)Nc1ccc(Cl)cc12 (stereo not shown)	>	100
CN1CC2(NC(=S)N(c3ccccc3)C2=O)C2(C1)C(=O)Nc1ccc(Cl)cc12 (stereo not shown)	>	100

----------
- Test system: HCT116^+/+ human colon cancer cells (p53 positive)
- Assay overview: MTT cytotoxicity test, HCT116 p53+/+
- Stated conditions: ratio of CC50 values of the cell line pair
Here, each record is paired with measured selectivity S against HCT116^+/+ over HCT116^−/− data.
Readout name: selectivity S against HCT116^+/+ over HCT116^−/−

Compound	Result
COc1cc([C@@H]2c3cc4c(cc3[C@@H](O[C@@H]3O[C@@H]5CO[C@@H](C)O[C@H]5[C@H](O)[C@H]3O)[C@H]3COC(=O)[C@H]23)OCO4)cc(OC)c1O [Etoposide, reference compound]	1.97
CN1CC2(NC(=S)N(Cc3cccc(Cl)c3)C2=O)C2(C1)C(=O)Nc1ccc(Cl)cc12 (stereo not shown)	> 2.9
CN1CC2(NC(=S)N(CCCN3CCOCC3)C2=O)C2(C1)C(=O)Nc1ccccc12 (stereo not shown)	> 1.8
CN1CC2(NC(=S)N(c3ccccc3)C2=O)C2(C1)C(=O)Nc1ccccc12 (stereo not shown)	> 4.8

----------
Each item that follows carries a reported melting point.
Readout name: melting point

Compound	Result
CCOc1ccc(N2C(=O)NC3(CN(C)CC34C(=O)Nc3ccc(Cl)cc34)C2=O)cc1 (centres unmarked)	273 to 274 °C
CN1CC2(NC(=S)N(CCCN3CCOCC3)C2=O)C2(C1)C(=O)Nc1ccccc12 (centres unmarked)	216 to 217 °C
CN1CC2(NC(=S)N(c3ccccc3)C2=O)C2(C1)C(=O)Nc1ccccc12 (centres unmarked)	273 to 274 °C
CCOc1ccc(N2C(=O)C3(CN(C)CC34C(=O)Nc3ccccc34)NC2=S)cc1 (centres unmarked)	240 to 241 °C
COc1ccc(N2C(=O)C3(CN(C)CC34C(=O)Nc3ccccc34)NC2=S)cc1 (centres unmarked)	155 to 156 °C
CN1CC2(NC(=S)N(c3ccc(F)c(Cl)c3)C2=O)C2(C1)C(=O)Nc1ccc(Cl)cc12 (centres unmarked)	177 to 180 °C
CN1CC2(NC(=S)N(c3ccc(F)cc3)C2=O)C2(C1)C(=O)Nc1ccc(Cl)cc12 (centres unmarked)	273 to 274 °C
CN1CC2(NC(=S)N(c3ccc(Cl)cc3)C2=O)C2(C1)C(=O)Nc1ccc(Cl)cc12 (centres unmarked)	239 to 240 °C

----------
- Assay overview: MTT cytotoxicity test, VA13
- Type: cell-based
- Stated conditions: human, VA13 SV40-transformed normal lung fibroblast cells, 72 h incubation
Below, each entry is listed with its recorded CC50 at 72 h.

Compound	Inequality operator	CC50 at 72 h / µM
CN1CC2(NC(=S)N(c3ccc(F)c(Cl)c3)C2=O)C2(C1)C(=O)Nc1ccccc12 (stereo not drawn)	=	57.9
CN1CC2(NC(=S)N(Cc3ccccc3)C2=O)C2(C1)C(=O)Nc1ccc(Cl)cc12 (stereo not drawn)	=	21.4
CN1CC2(NC(=S)N(Cc3ccccc3)C2=O)C2(C1)C(=O)Nc1ccccc12 (stereo not drawn)	=	16.1
COc1ccc(N2C(=O)C3(CN(C)CC34C(=O)Nc3ccc(Cl)cc34)NC2=[Se])cc1 (stereo not drawn)	=	12.5
CN1CC2(NC(=S)N(c3ccc(F)cc3)C2=O)C2(C1)C(=O)Nc1ccccc12 (stereo not drawn)	=	171
CN1CC2(NC(=S)N(Cc3cccc(Cl)c3)C2=O)C2(C1)C(=O)Nc1ccc(Cl)cc12 (stereo not drawn)	=	12.3
COc1ccc(N2C(=O)C3(CN(C)CC34C(=O)Nc3ccccc34)NC2=S)cc1 (stereo not drawn)	=	13.2
Cc1ccc(N2C(=O)C3(CN(C)CC34C(=O)Nc3ccccc34)NC2=S)cc1 (stereo not drawn)	>	100
C=CCN1C(=O)C2(CN(C)CC23C(=O)Nc2ccccc23)NC1=S (stereo not drawn)	>	100

----------
- System: A549 human lung adenocarcinoma epithelial cell line
- Assay overview: MTT cytotoxicity test, A549
- Type: cell-based
- Stated conditions: 72 h incubation

Compound	CC50
COc1ccc(N2C(=O)C3(CN(C)CC34C(=O)Nc3ccccc34)NC2=S)cc1 (stereo not shown)	18.9 µM
CN1CC2(NC(=S)N(C3CC3)C2=O)C2(C1)C(=O)Nc1ccc(Cl)cc12 (stereo not shown)	> 100 µM
CN1CC2(NC(=S)N(c3ccccc3)C2=O)C2(C1)C(=O)Nc1ccc(Cl)cc12 (stereo not shown)	> 100 µM
CN1CC2(NC(=S)N(c3ccc(F)cc3)C2=O)C2(C1)C(=O)Nc1ccc(Cl)cc12 (stereo not shown)	> 100 µM

These data points were gathered from paper PMC8703884.
